# Tested on: PC3
# assay comment: Cell line sensitivity (proliferation, CellTiter-GloII), PC3
# Assay type: cell-based
# protocol conditions: Homo sapiens, PC-3, 120 h; PC3; free drug; cell numbers three or 5 days after drug addition; read-out: EC50
recorded metric: pEC50
API: returns pEC50 as number; meaning -log10 of concentration in mol/L.

Please give measured pEC50 of the following entry: COc1cccc2c1C(=O)c1c(O)c3c(c(O)c1C2=O)C[C@@](O)(C(=O)CO)C[C@@H]3O[C@H]1C[C@H]2[C@H](O[C@@H]3[C@@H](OC)OCCN32)[C@H](C)O1 [PNU-159682] 10.29

* * *

# Tested on: Huh7
# assay comment: Cell line sensitivity (proliferation, CellTiter-GloII), Huh7
# Type: cell-based
# protocol conditions: Homo sapiens, Huh-7, 120 h
recorded metric: EC50 (nM)
Quick reminder: number only, in nM, skip the unit.

Using the record for C=C1C[C@H]2C=Nc3cc(OCCCCCOc4cc5c(cc4OC)C(=O)N4CC(=C)C[C@H]4C=N5)c(OC)cc3C(=O)N2C1 [SG-2057] , state its measured EC50. 0.147
